Target: Epidermal growth factor receptor (Homo sapiens, UniProt P00533, C797S/L858R/T790M)
Sequence (P00533 25-1210 T790M/C797S/L858R limits assumed): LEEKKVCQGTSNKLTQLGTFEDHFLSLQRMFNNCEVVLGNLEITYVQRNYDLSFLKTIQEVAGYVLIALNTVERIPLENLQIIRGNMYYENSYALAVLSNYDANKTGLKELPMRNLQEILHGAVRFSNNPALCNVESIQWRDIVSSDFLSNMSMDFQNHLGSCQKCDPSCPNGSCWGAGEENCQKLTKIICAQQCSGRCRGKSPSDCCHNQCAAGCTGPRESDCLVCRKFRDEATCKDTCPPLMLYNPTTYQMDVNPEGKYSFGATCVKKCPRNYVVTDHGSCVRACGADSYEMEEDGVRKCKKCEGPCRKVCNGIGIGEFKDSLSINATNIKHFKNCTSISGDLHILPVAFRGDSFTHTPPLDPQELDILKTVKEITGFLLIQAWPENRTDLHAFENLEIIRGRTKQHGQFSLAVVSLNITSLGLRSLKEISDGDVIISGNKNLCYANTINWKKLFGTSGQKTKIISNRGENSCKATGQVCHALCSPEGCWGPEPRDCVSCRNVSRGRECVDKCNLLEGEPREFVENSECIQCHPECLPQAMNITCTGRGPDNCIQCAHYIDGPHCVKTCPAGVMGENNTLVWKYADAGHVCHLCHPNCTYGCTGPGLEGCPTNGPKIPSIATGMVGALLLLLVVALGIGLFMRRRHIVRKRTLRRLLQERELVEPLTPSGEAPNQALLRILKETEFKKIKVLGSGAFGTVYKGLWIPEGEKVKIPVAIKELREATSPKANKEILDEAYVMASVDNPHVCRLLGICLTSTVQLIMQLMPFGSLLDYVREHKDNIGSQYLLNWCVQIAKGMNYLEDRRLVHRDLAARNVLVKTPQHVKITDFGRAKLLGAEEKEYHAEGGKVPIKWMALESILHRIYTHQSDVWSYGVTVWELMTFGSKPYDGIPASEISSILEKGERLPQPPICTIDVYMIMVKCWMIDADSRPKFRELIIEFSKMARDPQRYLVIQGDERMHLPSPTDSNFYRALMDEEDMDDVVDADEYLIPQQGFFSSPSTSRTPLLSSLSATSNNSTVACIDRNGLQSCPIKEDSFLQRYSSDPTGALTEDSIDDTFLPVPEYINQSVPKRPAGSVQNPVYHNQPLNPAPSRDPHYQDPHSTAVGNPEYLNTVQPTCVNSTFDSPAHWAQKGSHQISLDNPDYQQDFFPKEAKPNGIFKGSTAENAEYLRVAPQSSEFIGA
Experiment: Inhibition of N-terminal His6-tagged human EGFR L858R/T790M/C797S mutant expressed in Sf9 cells assessed as decrease in substrate phosphorylation using Srctide as substrate preincubated for 60 mins followed by substrate addition in presence of 1mM of ATP and measured after 45 mins by microplate reader analysis
measuredProperty: pIC50
One number for each entry, as −log10 of the molar value.

Incoming: Which pIC50 reading was recorded for the compound "C=CC(=O)Nc1cc(-c2cn(C)c3ccccc23)ncn1" ?
Outgoing: 6.82

---

Biological target: Epidermal growth factor receptor (Homo sapiens, UniProt P00533, C797S/L858R/T790M)
Assay: Inhibition of N-terminal His6-tagged human EGFR L858R/T790M/C797S mutant expressed in Sf9 cells assessed as decrease in substrate phosphorylation using Ulight-JAK1 peptide as substrate incubated for 1.5 hrs in presence of ATP by TR-FRET based LANCE Ultra kinase assay
measuredProperty: pIC50
Answers are plain numbers, as −log10 of the molar value.

List the reported pIC50 of each molecule below.
1. C=CC(=O)Nc1cc(-c2cn(C)c3ccccc23)ccn1
2. C=CC(=O)Nc1cc(-c2ccccc2)ccn1
3. C=CC(=O)Nc1cc(-c2cn(C)c3ccccc23)ncn1

Outgoing:
1. 5.05
2. 4.49
3. 6.05
